tested on: ATP; test: switch fluorescence ratio, 500 uM ATP over buffer (Cy3 cluster intensity, sum of 5 cycles each) (fold (ratio)); higher = stronger signal-on switching upon ATP binding; sequences stand for … in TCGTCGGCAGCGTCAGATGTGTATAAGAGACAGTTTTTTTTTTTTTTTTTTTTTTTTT…TC; settings: aptamer strand: ATP DNA aptamer (quencher-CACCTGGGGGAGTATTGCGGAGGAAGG + anchor), 100 nM annealed; ATP concentration: 500 uM;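 also: ATP exposure 15 min at 22 °C before imaging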
outcome.measure: switch fluorescence ratio

In [3]: df
Out[3]:
    biosequence  endpoint_value
 0   TTGGGACCGT               1
 1   CAGTTGGTTT            0.97
 2   GGGGATAGAT           0.982
 3   GTGTTTTGGC            1.02
 4   CACTAGAGGT            1.03
 5   AAAGGGGTGA            0.97
 6   GTGTCTACAT            1.02
 7   GATGTAGGAG           0.971
 8   GCATTATTAA            1.01
 9   TTTTAGGGCG           0.976
10   AAAGCGGGGC            1.02
11   GGGAGAAGCG           0.982
12   AGCATGGGAG           0.991
13   AACAGCAATT            1.27
14   CGTCCACAGG            2.96
15   TATCACGGCT           0.969
16   CACTCAGGGA            1.04
17   ATGTGAGAGG           0.991
18   GTAAGGGAAT           0.972
19   AAGGGCATTG           0.998
